Target: Aurora2 (Aurora-A) (Homo sapiens, UniProt O14965)
Construct: Aurora-A: the full length recombinant protein including an N-terminal poly-histidine tail has been expressed in E. coli; poly-histidine (N)
Sequence (O14965 1-403): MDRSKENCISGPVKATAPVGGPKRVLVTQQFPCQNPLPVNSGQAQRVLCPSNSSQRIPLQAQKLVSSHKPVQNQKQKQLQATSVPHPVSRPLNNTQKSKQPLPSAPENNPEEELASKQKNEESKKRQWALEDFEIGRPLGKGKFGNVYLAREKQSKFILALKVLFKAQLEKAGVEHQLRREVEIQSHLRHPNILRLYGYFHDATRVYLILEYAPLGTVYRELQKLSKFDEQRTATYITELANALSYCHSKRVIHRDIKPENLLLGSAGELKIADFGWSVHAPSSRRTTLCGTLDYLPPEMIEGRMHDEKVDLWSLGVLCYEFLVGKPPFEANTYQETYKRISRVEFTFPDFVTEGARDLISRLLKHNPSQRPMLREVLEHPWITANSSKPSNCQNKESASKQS
Experiment: Aurora 2 (Aurora A) kinase radioactivity scintillation assay using nickel chelate Flash plates
Conditions: 10 nM Aurora-A, 500 nM NuMA substrate, 1 μM ATP with [33P] ATP, 10 mM MgCl2, 30 minutes, 37° C.
Property name: IC50 (nM)

Solved entries (count: 8):
Molecule | Subject of test | IC50, nM
CCOC(=O)c1[nH]cc2c1NC1=C(C(=O)CN(C(=O)OC(C)(C)C)C1)C2c1ccc(Sc2nc3cc(Cl)cc(C)c3[nH]2)o1 (stereo not shown) | Aurora2 (Aurora-A) (Homo sapiens, UniProt O14965) | 205
Cc1ccc2[nH]c(Sc3ccc(C4C5=C(CNCC5=O)Nc5n[nH]cc54)s3)nc2c1 (stereo not shown) | Aurora2 (Aurora-A) (Homo sapiens, UniProt O14965) | 4720
CC1(C)CC(=O)C2=C(C1)Nc1n[nH]cc1C2c1ccc(Sc2nc3cc(Cl)ccc3o2)o1 (stereo not shown) | Aurora2 (Aurora-A) (Homo sapiens, UniProt O14965) | 670
Cc1cc(C2C3=C(CNCC3=O)Nc3n[nH]cc32)ccc1O (stereo not shown) | Aurora2 (Aurora-A) (Homo sapiens, UniProt O14965) | 7450
CC1(C)CC(=O)C2=C(C1)Nc1c(c[nH]c1C(=O)O)C2c1ccc(Sc2nc3ccccc3[nH]2)o1 (stereo not shown) | Aurora2 (Aurora-A) (Homo sapiens, UniProt O14965) | 20
CCOC(=O)c1[nH]cc2c1NC1=C(C(=O)CCC1)C2c1ccc(Sc2nc3cc(Cl)c(Cl)cc3[nH]2)o1 (stereo not shown) | Aurora2 (Aurora-A) (Homo sapiens, UniProt O14965) | 54
COc1ccc2[nH]c(Sc3ccc(C4C5=C(CNCC5=O)Nc5n[nH]cc54)o3)nc2c1 (stereo not shown) | Aurora2 (Aurora-A) (Homo sapiens, UniProt O14965) | 495
Cc1ccc2[nH]c(Sc3ccc(C4C5=C(CC(C)(C)CC5=O)Nc5n[nH]cc54)o3)nc2c1 (stereo not shown) | Aurora2 (Aurora-A) (Homo sapiens, UniProt O14965) | 20

P: O=C1CCCC2=C1C(c1ccc(Sc3nc4cc(Cl)c(Cl)cc4[nH]3)o1)c1c[nH]nc1N2 (stereo not shown)
Q: CCOC(=O)c1[nH]cc2c1NC1=C(C(=O)CC(C)(C)C1)C2c1ccc(Sc2nc3cc(C)ccc3[nH]2)o1 (stereo not shown)
Task: Record comparison, field IC50: mark the lower of P and Q . Answer with the label corresponding to your selection.
Output: P
(P: 22 nM, Q: 63 nM)
